meta.source: patent US10597388B2

- System: kochia (Kochia scoparia)
- test method notes: Test A greenhouse herbicide test, pre- and postemergence
- Assay type: in vivo
- cond: Postemergence, 125 g ai/ha; 0 to 100 scale where 0 is no effect and 100 is complete control
metric name: Plant response rating, Kochia

COC(=O)Oc1c(C)nn(C)c(=O)c1-c1ccc(Br)c2ccccc12: 100
COC(=O)Oc1c(C)nn(C)c(=O)c1-c1ccc(Cl)c2ccccc12: 100
CCC(=O)Oc1c(OC)nn(C)c(=O)c1-c1c(C)sc2ccc(Cl)cc12: 60
Cc1nn(C)c(=O)c(-c2ccc(Br)c3ccccc23)c1O: 80
COc1nn(C)c(=O)c(-c2c(C(F)F)ccc3ccccc23)c1O: 70

###

We begin with a simple list: items and their reported Galium plant response rating.
- Test system: galium (catchweed bedstraw, Galium aparine)
- test method notes: Test D controlled growth environment herbicide test, pre- and postemergence
- Format: in vivo
- cond: Postemergence, 31 g ai/ha; scale 0 to 100 (0 no effect, 100 complete control)
metric name: Galium plant response rating

CCCC(=O)Oc1c(C)nn(C)c(=O)c1-c1c(C)sc2ccc(C)cc12 [Compound 105]: 85
COC(=O)Oc1c(C)nn(C)c(=O)c1-c1c(C)sc2ccc(C)cc12 [Compound 80]: 90
Cc1ccc2ccccc2c1-c1c(OC(=O)OC(C)C)c(C)nn(C)c1=O [Compound 72]: 95
Cc1nn(C)c(=O)c(-c2c(C)sc3c(C)cc(Cl)cc23)c1O [Compound 35]: 98
Cc1cc(C)c2ccccc2c1-c1c(O)c(C)nn(C)c1=O [Compound 21]: 100
CCc1sc2c(C)cc(C)cc2c1-c1c(O)c(C)nn(C)c1=O [Compound 57]: 90

###

- Tested on: waterhemp (common waterhemp, Amaranthus rudis)
- test method notes: Test C greenhouse herbicide test, pre- and postemergence
- Type: in vivo
- cond: postemergence, 62 g ai/ha; scale 0 to 100, 0 no effect, 100 complete control
We begin with a simple list: items and their reported Waterhemp plant response rating.
metric name: Waterhemp plant response rating

Cc1ccc2ccccc2c1-c1c(O)c(Br)nn(C)c1=O: 55
Cc1cc(C)c2sc(C)c(-c3c(O)c(C)nn(C)c3=O)c2c1: 65
CCC(=O)Oc1c(C)nn(C)c(=O)c1-c1c(C)ccc2ccccc12: 90
Cc1nn(C)c(=O)c(-c2ccc(Br)c3ccccc23)c1O: 100
COC(=O)Oc1c(C)nn(C)c(=O)c1-c1c(C)sc2ccc(C)cc12: 80
CC(=O)Oc1c(C)nn(C)c(=O)c1-c1c(C)cc(C)c2ccccc12: 75

###

- Tested on: oat, wild (wild oat, Avena fatua)
- test method notes: Test C greenhouse herbicide test, postemergence
- Assay type: in vivo
- cond: Postemergence, 31 g ai/ha; scale 0 to 100 (0 no effect, 100 complete control)
Please mark yes if the recorded Plant response rating, Oat, Wild is equal to or greater than 40, and no if it falls below.

CCC(=O)Oc1c(C)nn(C)c(=O)c1-c1ccc(F)c2ccccc12 [Compound 113]: yes
COC(=O)Oc1c(C)nn(C)c(=O)c1-c1ccc(Br)c2ccccc12 [Compound 145]: yes
COC(=O)Oc1c(OC)nn(C)c(=O)c1-c1c(C)ccc2ccccc12 [Compound 136]: yes
Cc1nn(C)c(=O)c(-c2ccc(Cl)c3ccccc23)c1O [Compound 139]: yes
CCCC(=O)Oc1c(C)nn(C)c(=O)c1-c1c(CC)sc2ccc(C)cc12 [Compound 107]: no
Cc1ccc2ccccc2c1-c1c(O)c(C(F)(F)F)nn(C)c1=O [Compound 102]: no

###

We begin with a simple list: items and their reported Ragweed plant response rating.
- Test system: ragweed (common ragweed, Ambrosia elatior)
- test method notes: Test A greenhouse herbicide test, pre- and postemergence
- Assay type: in vivo
- cond: Postemergence, 500 g ai/ha; 0 to 100 scale, 0 is no effect, 100 is complete control
metric name: Ragweed plant response rating

CCC(=O)Oc1c(C)nn(C)c(=O)c1-c1ccc(Cl)c2ccccc12 [Compound 62]: 100
Cc1sc2ccccc2c1-c1c(O)cnn(C)c1=O [Compound 48]: 20
Cc1ccc2ccccc2c1-c1c(O)c(I)nn(C)c1=O [Compound 29]: 100

###

- Tested on: arrowleaf sida (Sida rhombifolia)
- test method notes: Test E greenhouse herbicide test, pre- and postemergence
- Assay type: in vivo
- cond: 62 g ai/ha, Preemergence; scale 0 to 100 (0 no effect, 100 complete control)
metric name: Plant response rating, Arrowleaf Sida

COC(=O)Oc1c(C)nn(C)c(=O)c1-c1c(C)sc2ccc(C)cc12 [Compound 80]: 35
Cc1nn(C)c(=O)c(-c2ccc(F)c3ccccc23)c1O [Compound 41]: 50
CCCC(=O)Oc1c(C)nn(C)c(=O)c1-c1c(C)sc2ccc(C)cc12 [Compound 105]: 40
Cc1ccc2sc(C)c(-c3c(OC(=O)OC(C)C)c(C)nn(C)c3=O)c2c1 [Compound 66]: 40
CCc1sc2c(C)cc(C)cc2c1-c1c(O)c(C)nn(C)c1=O [Compound 57]: 0

###

- Tested on: wheat (winter wheat, Triticum aestivum)
- test method notes: Test C greenhouse herbicide test, pre- and postemergence
- Type: in vivo
- cond: Preemergence, 250 g ai/ha; scale 0 to 100, 0 no effect, 100 complete control
- Text: […]
Please mark 1 if the recorded Wheat plant response rating is equal to or greater than 20, and 0 if it falls below.

Cc1nn(C)c(=O)c(-c2ccc(Cl)c3ccccc23)c1O [Compound 139]: 0
Cc1nn(C)c(=O)c(-c2c(C)sc3ccc(C(F)(F)F)cc23)c1O [Compound 121]: 0
Cc1nn(C)c(=O)c(-c2ccc(Br)c3ccccc23)c1O [Compound 75]: 0
COC(=O)Oc1c(OC)nn(C)c(=O)c1-c1c(C)ccc2ccccc12 [Compound 136]: 1
Cc1cc(C)c2sc(C)c(-c3c(O)c(C)nn(C)c3=O)c2c1 [Compound 2]: 0
Cc1nn(C)c(=O)c(-c2cccc3ccccc23)c1O [Compound 11]: 0
CC(=O)Oc1c(C)nn(C)c(=O)c1-c1c(C)sc2ccc(C(F)(F)F)cc12 [Compound 132]: 1
CCC(=O)Oc1c(C)nn(C)c(=O)c1-c1ccc(F)c2ccccc12 [Compound 113]: 1
CC(=O)Oc1c(Cl)nn(C)c(=O)c1-c1c(C)sc2ccc(Cl)cc12 [Compound 116]: 0

###

- Tested on: field poppy (Papaver rhoeas)
- test method notes: Test D controlled growth environment herbicide test, pre- and postemergence
- Format: in vivo
- cond: Postemergence, 125 g ai/ha; visual rating on scale 0 (no effect) to 100 (complete control), 14 to 21 d
- Description: […]
metric name: Plant response rating, Field Poppy

Cc1nn(C)c(=O)c(-c2ccc(Br)c3ccccc23)c1O: 100
Cc1cc(C)c2sc(C)c(-c3c(O)c(C)nn(C)c3=O)c2c1: 100
Cc1nn(C)c(=O)c(-c2cccc3ccccc23)c1O: 80
Cc1nn(C)c(=O)c(-c2cccc3ccc(Br)cc23)c1O: 75

###

- System: dayflower (Virginia (VA) dayflower, Commelina virginica)
- test method notes: Test E greenhouse herbicide test, pre- and postemergence
- Assay type: in vivo
- cond: 62 g ai/ha, Preemergence; scale 0 to 100 (0 no effect, 100 complete control)
metric name: Plant response rating, Dayflower, VA

Cc1ccc2sc(C)c(-c3c(OC(=O)OC(C)C)c(C)nn(C)c3=O)c2c1: 0
Cc1ccc2ccccc2c1-c1c(O)c(I)nn(C)c1=O: 0
Cc1cc(C)c2ccccc2c1-c1c(O)c(C)nn(C)c1=O: 60
Cc1cc2ccccc2c(-c2c(O)c(C)nn(C)c2=O)c1C: 35
CCCC(=O)Oc1c(C)nn(C)c(=O)c1-c1c(C)sc2ccc(C)cc12: 0
COC(=O)Oc1c(C)nn(C)c(=O)c1-c1c(C)sc2ccc(C)cc12: 0

###

- Test system: wheat, spring (spring wheat, Triticum aestivum)
- test method notes: Test D controlled growth environment herbicide test, pre- and postemergence
- Assay type: in vivo
- cond: Preemergence, 31 g ai/ha
We begin with a simple list: items and their reported Plant response rating (scale of 0 to 100), Wheat, Spring.
metric name: Plant response rating (scale of 0 to 100), Wheat, Spring

Cc1ccc2ccccc2c1-c1c(OC(=O)OC(C)C)c(C)nn(C)c1=O [Compound 72]: 0
COC(=O)Oc1c(C)nn(C)c(=O)c1-c1c(C)sc2ccc(C)cc12 [Compound 80]: 0
Cn1nc(Br)c(O)c(-c2cccc3ccccc23)c1=O [Compound 20]: 0
CCc1sc2c(C)cc(C)cc2c1-c1c(O)c(C)nn(C)c1=O [Compound 57]: 5
CC(=O)Oc1c(C)nn(C)c(=O)c1-c1c(C)sc2ccc(Cl)cc12 [Compound 108]: 0
Cc1nn(C)c(=O)c(-c2c(C)sc3c(C)cc(Cl)cc23)c1O [Compound 35]: 0
Cc1cc(C)c2sc(C)c(-c3c(O)c(C)nn(C)c3=O)c2c1 [Compound 2]: 0
Cc1ccc2sc(Br)c(-c3c(O)c(C)nn(C)c3=O)c2c1 [Compound 79]: 0
